Parameter: growth inhibition. Scope: all listed entries.
assay explanation: NCI Yeast Anticancer Drug Screen. Data for the sgs1 mgt1 strain (AID 161);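 note: 0% = growth of cultures given vehicle only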
measurement context: S. cerevisiae sgs1 mgt1 strain, at 50.0 µM, hits give high values
Compounds without any hit were thinned out: in the full panel of roughly 79,000, 15% have a hit.
Field format: number, assumed %, no unit text.

// query Please list growth inhibition recorded for the compound COc1cccc(CN(CC(=O)O)S(=O)(=O)c2ccc(C)cc2)c1
// result -1

// query Give growth inhibition for Nc1ccc(N=Nc2ccccc2)c(N)c1
// result 27

// query Specify reported growth inhibition for the compound shown: O=C(COc1cccc(Cl)c1)Nc1ccccc1
// result 7.85

// query Return growth inhibition (reported value) for this compound: CNC(=S)NNC(=O)c1ccncc1
// result 13.6

// query Please indicate growth inhibition recorded for C(=NCCN=Cc1ccccc1)c1ccccc1
// result -21.8

// query Supply reported growth inhibition belonging to this compound: O=C1C/C(=C/c2ccccc2[N+](=O)[O-])C(=O)N1c1ccccc1
// result 13.4

// query Give reported growth inhibition value for O=C(Nc1c(O)[nH][nH]c1=O)c1ccccc1
// result -9.7

// query Query growth inhibition for CC1(O)c2ccccc2-c2nc3ccccc3nc21 (stereo not drawn)
// result -16.4

// query Fill in growth inhibition for record Nc1ncnc2c1nnn2C1CCC(CP(=O)(O)O)C1 (stereo not drawn)
// result -4.65

// query Indicate the recorded growth inhibition value for this compound: CCN1C(=O)Nc2ccc(Cl)cc2C1(O)c1ccccc1 (stereo not drawn)
// result 1.55

// query Quick one: give measured growth inhibition for Cc1cc(O)c(C(C)C)cc1CN1CCCCC1
// result -14.2

// query Give reported growth inhibition value for CNC(=O)SC1=NS(=O)(=O)c2ccc(Cl)cc2N1
// result 33.4

// query Specify growth inhibition for Nc1cc(Cl)nc(N)n1 and stop.
// result 9.9

----------
assay explanation: NCI Yeast Anticancer Drug Screen. Data for the sgs1 mgt1 strain (AID 161);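 note: 0% = growth of cultures given vehicle only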
measurement context: S. cerevisiae sgs1 mgt1 strain, at 50.0 µM, hits give high values
Compounds without any hit were thinned out: in the full panel of roughly 79,000, 15% have a hit.
test readout: growth inhibition (%)
Numbers only here, please. The scale is %.

- compound: "COC(=O)CCC(=O)Nc1ccc(Cl)cc1C"
  numeric result: -19.9
- compound: "CN(C)c1ccccc1CCCCCBr"
  numeric result: 5.5
- compound: "Cc1ccc(C(C)C)nc1"
  numeric result: 19.1
- compound: "O=C(Nc1ccccc1O)c1ccc(Cl)c(Cl)c1"
  numeric result: 33.2
- compound: "CC(=O)[C@H]1CC[C@H]2[C@@H]3CCC4=CC(=O)CC[C@]4(C)[C@H]3C[C@H](OS(=O)(=O)c3ccc(C)cc3)[C@]12C"
  numeric result: 31.2

// query Provide measured growth inhibition value, entry: COc1ccc(-c2ccc(OC)cc2)cc1
// result -3.8

// query Note growth inhibition for the compound shown: COc1cccc([N+](=O)[O-])c1
// result -14.8

// query Respond only with growth inhibition recorded for CCCCCC(Oc1ccc(Cl)cc1Cl)C(=O)O (centres undefined)
// result 97.5

// query Query growth inhibition for O=C(Nc1cc(Cl)c(Oc2ccc(Cl)cc2)cc1S(=O)(=O)O)Nc1cccc(Cl)c1Cl
// result 99.6

// query // Input: CC/C(Cl)=N\OC(=O)Nc1ccc(C#N)cc1 . Output its growth inhibition only.
// result -19.4
